Reference for the values: the supplement of paper PMC9112550

Please go through the items and note down their shrunken log2 fold change.
tested on: Escherichia coli TOP10; test: shrunken log2 fold change of peptide-encoding DNA abundance (4.5 h post-induction vs induction); higher = less antimicrobial activity (less host growth inhibition); details: time post-induction: 4.5 h; library: site-saturation at positions 5, 18, 19, 20
Form field (numeric): enter value without unit.

// shrunken log2 fold change lookup, sequence = `RRIRYRPPRLPRPRPRPHVYPRP` , result: -0.748

// shrunken log2 fold change lookup, sequence = `RRIRNRPPRLPRPRPRPTIGPRP` , result: -0.00466

Lab note: measured shrunken log2 fold change of `RRIRKRPPRLPRPRPRPFIEPRP` was -0.205

// `RRIRSRPPRLPRPRPRPRYIPRP` : shrunken log2 fold change value = -0.707

----------
Record form. Attribute: shrunken log2 fold change. Fill in for each entry.
system: Escherichia coli TOP10; assay: shrunken log2 fold change of peptide-encoding DNA abundance (4.5 h post-induction vs induction); higher = less antimicrobial activity (less host growth inhibition); conditions: time post-induction: 4.5 h; library: site-saturation at positions 5, 18, 19, 20;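 also: peptides expressed intracellularly from a pBAD plasmid library in pooled LB shake-flask culture, induced with 0.3% L-arabinose, DNA abundance read by NGS, three biological replicates, DESeq2 with apeglm shrinkage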
Form field (numeric): enter value without unit.

Reported shrunken log2 fold change ( `RRIRYRPPRLPRPRPRPLFSPRP` ) = -0.673

GET /value?item= `RRIRFRPPRLPRPRPRPTTCPRP` &field=shrunken log2 fold change returns -0.19

Reported shrunken log2 fold change ( `RRIRIRPPRLPRPRPRPQMGPRP` ) = -0.0795

Given item `RRIRCRPPRLPRPRPRPQVIPRP` , the value recorded as its shrunken log2 fold change is -0.386

Quick note, shrunken log2 fold change for `RRIRCRPPRLPRPRPRPFTSPRP` landed at -0.152

The reported shrunken log2 fold change of the sequence `RRIRYRPPRLPRPRPRPTHGPRP` was -0.1

Kindly note the recorded shrunken log2 fold change for `RRIRSRPPRLPRPRPRPQCPPRP` , which is -0.172

Record summary for `RRIRCRPPRLPRPRPRPPFMPRP` : reported shrunken log2 fold change = 0.114

Data point: `RRIRSRPPRLPRPRPRPKCMPRP` ; shrunken log2 fold change = -0.218

Lab note: measured shrunken log2 fold change of `RRIRARPPRLPRPRPRPRTFPRP` was 0.287

Per the record, `RRIRLRPPRLPRPRPRPCMIPRP` has shrunken log2 fold change of -0.21

For this sequence ( `RRIRKRPPRLPRPRPRPGRWPRP` ), measured shrunken log2 fold change is 0.622

# sequence `RRIRWRPPRLPRPRPRPMIKPRP` ; its shrunken log2 fold change = -0.353

Input `RRIRYRPPRLPRPRPRPVVSPRP` . Output shrunken log2 fold change: -0.595

# shrunken log2 fold change of `RRIRIRPPRLPRPRPRPQLSPRP` = -0.565

# sequence `RRIRMRPPRLPRPRPRPWSKPRP` ; its shrunken log2 fold change = 0.0409

Just so you know, measured shrunken log2 fold change for `RRIRTRPPRLPRPRPRPKRWPRP` came out at 0.723

The sequence identified as `RRIRGRPPRLPRPRPRPLSIPRP` registered its shrunken log2 fold change at 0.363

Note to self: shrunken log2 fold change recorded for `RRIRYRPPRLPRPRPRPGFNPRP` was -0.46

Sample `RRIRWRPPRLPRPRPRPLRMPRP` ; shrunken log2 fold change observed: 0.531

Briefly, shrunken log2 fold change measured for `RRIRRRPPRLPRPRPRPDCDPRP` : 0.222

Value of measured shrunken log2 fold change for the entry `RRIRWRPPRLPRPRPRPKPHPRP` : 0.351

Reported shrunken log2 fold change of `RRIRGRPPRLPRPRPRPAGCPRP` : 0.973

Measured shrunken log2 fold change, `RRIRARPPRLPRPRPRPWLGPRP` : 0.417

`RRIRLRPPRLPRPRPRPYYIPRP` yielded shrunken log2 fold change of -0.982

So for `RRIRCRPPRLPRPRPRPAIHPRP` , the logged shrunken log2 fold change turned out to be -0.248
